Biological target: Cholinesterase (Equus caballus, UniProt P81908)
Sequence (P81908 whole entry): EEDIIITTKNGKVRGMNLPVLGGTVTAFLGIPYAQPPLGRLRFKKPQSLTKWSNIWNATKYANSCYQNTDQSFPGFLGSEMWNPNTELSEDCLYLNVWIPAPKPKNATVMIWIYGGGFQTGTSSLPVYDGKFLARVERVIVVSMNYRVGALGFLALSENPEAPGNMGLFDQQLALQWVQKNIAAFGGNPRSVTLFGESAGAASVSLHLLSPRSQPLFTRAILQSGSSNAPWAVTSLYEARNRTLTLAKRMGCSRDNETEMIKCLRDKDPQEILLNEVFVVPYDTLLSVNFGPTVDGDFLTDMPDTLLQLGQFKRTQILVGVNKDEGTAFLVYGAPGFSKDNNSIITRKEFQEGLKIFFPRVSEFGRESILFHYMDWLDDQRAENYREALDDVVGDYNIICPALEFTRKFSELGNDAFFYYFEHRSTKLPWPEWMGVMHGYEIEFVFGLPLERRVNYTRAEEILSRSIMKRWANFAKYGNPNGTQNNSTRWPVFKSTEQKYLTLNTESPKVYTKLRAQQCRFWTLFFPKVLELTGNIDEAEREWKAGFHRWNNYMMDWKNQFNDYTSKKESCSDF
Assay: Inhibition of equine serum BuChE preincubated for 6 mins followed by addition of S-butyrylthiocholine iodide by Ellman's method
parameter: IC50 (µM)

1. Cc1ccc(-c2cn(C)nn2)cc1C(=O)NCCN1CCOCC1 :: 68.1
2. Cc1ccc(-c2cn(Cc3ccc(C#N)cc3)nn2)cc1C(=O)NCCN1CCOCC1 :: 92.8
3. Cc1ccc(-c2cn(Cc3ccc([N+](=O)[O-])cc3)nn2)cc1C(=O)NCCN1CCOCC1 :: 60.5
4. Cc1ccc(-c2cn(Cc3ccccc3F)nn2)cc1C(=O)NCCN1CCOCC1 :: 47.2
5. COc1ccc(Br)c(Cn2cc(-c3ccc(C)c(C(=O)NCCN4CCOCC4)c3)nn2)c1 :: 50.8
6. Cc1ccc(-c2cn(Cc3ccc(F)cc3Br)nn2)cc1C(=O)NCCN1CCOCC1 :: 70.8
7. Cc1ccc(-c2cn(Cc3ccc(F)cc3Cl)nn2)cc1C(=O)NCCN1CCOCC1 :: 68.9
8. Cc1ccc(-c2cn(Cc3ccccc3Cl)nn2)cc1C(=O)NCCN1CCOCC1 :: 34.5
9. Cc1ccc(Cn2cc(-c3ccc(C)c(C(=O)NCCN4CCOCC4)c3)nn2)cc1 :: 83.1
10. Cc1cc(F)ccc1Cn1cc(-c2ccc(C)c(C(=O)NCCN3CCOCC3)c2)nn1 :: 61
11. Cc1cc(C)cc(Cn2cc(-c3ccc(C)c(C(=O)NCCN4CCOCC4)c3)nn2)c1 :: 56.2
12. Cc1ccc(-c2cn(Cc3ccc4ccccc4c3)nn2)cc1C(=O)NCCN1CCOCC1 :: 90.8
13. Cc1ccc(-c2cn(Cc3ccc(OC(F)(F)F)cc3)nn2)cc1C(=O)NCCN1CCOCC1 :: 60.2
14. Cc1ccc(-c2cn(Cc3ccc(Br)cc3)nn2)cc1C(=O)NCCN1CCOCC1 :: 45.6
15. Cc1ccc(-c2cn(Cc3cccc(Br)c3)nn2)cc1C(=O)NCCN1CCOCC1 :: 40.3
16. Cc1ccc(-c2cn(Cc3cccc(Cl)c3)nn2)cc1C(=O)NCCN1CCOCC1 :: 36.3
17. Cc1ccc(-c2cn(Cc3cccc(F)c3)nn2)cc1C(=O)NCCN1CCOCC1 :: 60.8
18. Cc1ccc(-c2cn(Cc3ccc(S(N)(=O)=O)cc3)nn2)cc1C(=O)NCCN1CCOCC1 :: 45.5
19. COC(=O)c1ccc(Cn2cc(-c3ccc(C)c(C(=O)NCCN4CCOCC4)c3)nn2)cc1 :: 67.8
20. Cc1ccc(-c2cn(Cc3ccc(F)cc3F)nn2)cc1C(=O)NCCN1CCOCC1 :: 89.6
21. Cc1ccc(-c2cn(Cc3ccccc3Br)nn2)cc1C(=O)NCCN1CCOCC1 :: 78.6
22. Cc1ccc(-c2cn(Cc3ccccc3C(F)(F)F)nn2)cc1C(=O)NCCN1CCOCC1 :: 45.1
23. Cc1ccc(-c2cn(Cc3ccc(F)c(F)c3)nn2)cc1C(=O)NCCN1CCOCC1 :: 95.4
24. Cc1ccc(-c2cn(Cc3cccc4ccccc34)nn2)cc1C(=O)NCCN1CCOCC1 :: 72.9
25. COC(=O)/C=C/c1ccc(Cn2cc(-c3ccc(C)c(C(=O)NCCN4CCOCC4)c3)nn2)cc1 :: 90.9
26. Cc1ccc(-c2cn(Cc3ccc(F)cc3)nn2)cc1C(=O)NCCN1CCOCC1 :: 43.7
27. Cc1ccc(-c2cn(Cc3ccc(F)c([N+](=O)[O-])c3)nn2)cc1C(=O)NCCN1CCOCC1 :: 34.8
